These data points were gathered from the supplement of paper PMC10065799.

# Target or system: EPHB2 (UniProt P29323)
# Sequence (P29323 whole entry, looked up): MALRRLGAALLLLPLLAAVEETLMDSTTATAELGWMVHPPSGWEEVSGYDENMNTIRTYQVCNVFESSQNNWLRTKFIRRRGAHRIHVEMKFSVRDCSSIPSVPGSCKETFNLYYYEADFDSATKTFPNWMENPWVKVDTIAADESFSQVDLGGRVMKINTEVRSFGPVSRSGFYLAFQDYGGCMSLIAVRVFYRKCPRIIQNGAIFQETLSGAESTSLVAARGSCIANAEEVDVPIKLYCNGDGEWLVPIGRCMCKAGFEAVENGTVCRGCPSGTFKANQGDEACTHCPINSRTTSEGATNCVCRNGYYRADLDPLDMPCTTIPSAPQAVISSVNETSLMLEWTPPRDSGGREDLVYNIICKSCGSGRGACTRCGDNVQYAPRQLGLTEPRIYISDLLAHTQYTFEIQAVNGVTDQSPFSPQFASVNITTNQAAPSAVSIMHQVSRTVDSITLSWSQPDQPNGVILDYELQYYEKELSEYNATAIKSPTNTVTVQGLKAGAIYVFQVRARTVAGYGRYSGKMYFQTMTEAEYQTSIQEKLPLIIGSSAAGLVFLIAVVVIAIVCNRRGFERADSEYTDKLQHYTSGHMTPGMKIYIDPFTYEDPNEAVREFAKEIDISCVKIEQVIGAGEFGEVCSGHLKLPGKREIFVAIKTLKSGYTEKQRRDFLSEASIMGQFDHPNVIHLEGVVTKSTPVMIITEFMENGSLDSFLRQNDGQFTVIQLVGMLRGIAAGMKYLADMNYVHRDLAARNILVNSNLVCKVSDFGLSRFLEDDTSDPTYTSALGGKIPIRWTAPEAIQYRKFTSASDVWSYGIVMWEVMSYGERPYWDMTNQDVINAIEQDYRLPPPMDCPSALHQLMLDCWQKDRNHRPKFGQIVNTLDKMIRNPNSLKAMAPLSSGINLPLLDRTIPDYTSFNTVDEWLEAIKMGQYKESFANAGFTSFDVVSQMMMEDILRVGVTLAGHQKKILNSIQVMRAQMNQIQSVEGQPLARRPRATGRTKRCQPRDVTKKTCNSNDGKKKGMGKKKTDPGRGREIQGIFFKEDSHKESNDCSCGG
# Experiment: phosphorylation enrichment, bacterial display (enrichment ratio); higher = better substrate or ligand; peptides without Tyr show the background;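 note: 11-residue human phosphosite peptides and single-mutation variants displayed on the E. coli surface, counted by deep sequencing, each peptide's frequency after selection divided by its frequency in the unselected input library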;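 note: frequency after pTyr selection over input frequency; kinase dosed for 20-30% of maximal phosphorylation in three min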

[
  {
    "Residue codes": "IFHENYNAGTY [CFI_Y421]",
    "phosphorylation enrichment": 0.585
  },
  {
    "Residue codes": "LEDDMYRKTCT [XPA_Y257]",
    "phosphorylation enrichment": 1.03
  },
  {
    "Residue codes": "YQSKHYACIRQ [TIMP3_Y182]",
    "phosphorylation enrichment": 0.451
  },
  {
    "Residue codes": "MCITQYERESQ [PRNP_Y218]",
    "phosphorylation enrichment": 0.495
  },
  {
    "Residue codes": "KSSDVYVSYDC [SORL1_Y136_Y141C]",
    "phosphorylation enrichment": 0.993
  },
  {
    "Residue codes": "EQFELYCEMGS [CBL_Y371_YF]",
    "phosphorylation enrichment": 2.66
  },
  {
    "Residue codes": "NKEAIYSGYIR [SMCHD1_Y283]",
    "phosphorylation enrichment": 11.2
  },
  {
    "Residue codes": "HQPGEYIFHAE [FLT3_Y416]",
    "phosphorylation enrichment": 1.12
  },
  {
    "Residue codes": "SREALYNEMDP [CACNA1A_Y794]",
    "phosphorylation enrichment": 0.693
  },
  {
    "Residue codes": "VDSIEYEVASQ [SLC7A7_Y7_T5I]",
    "phosphorylation enrichment": 0.618
  },
  {
    "Residue codes": "AKLDIYKRKVE [VWA3B_Y918_N916D]",
    "phosphorylation enrichment": 0.283
  },
  {
    "Residue codes": "RTESQYQENRG [LRCH3_Y354_R350T]",
    "phosphorylation enrichment": 0.414
  },
  {
    "Residue codes": "QKKEEYKMALY [F8_Y1990_R1985Q]",
    "phosphorylation enrichment": 0.626
  },
  {
    "Residue codes": "TMEDSYRKQVV [KRAS_Y40_I36M]",
    "phosphorylation enrichment": 0.367
  }
]
